Assay: Approximate solubility of free form in solvents at 25° C. (manual dilution, visual observation)
Assay type: physicochemical
Conditions: ethanol, organic solvent or mixture, thermodynamic from solid, read-out: Solubility (mg/mL) at 25° C.
measured-property: solubility

Value of measured solubility for the entry CN1CCC[C@H](CN2c3ccccc3Sc3ccccc32)C1 [(S)-mepazine] : > 100 mg/mL

These entries and their values trace back to patent US20240217961A1.
